Ref: patent US9889146B2

system: K. pneumoniae ATCC 13883 wild type and mutants; assay: MIC, wild type and GSK2251052 resistant mutants; assay type: cell-based; details: Klebsiella pneumoniae, ATCC13883, read-out: MICs, mutant K 107
METRIC_NAME: MIC (µg/mL)
The answer is to be given in µg/mL; state only the numeric part.

Guide cases for MIC, answers given:
COMPOUND	RESULT_UNITS	MIC
COc1cc(Cc2cnc(N)nc2N)cc(OC)c1OC [Trimethoprim]	µg/mL	1
O=C(O)c1cn(C2CC2)c2cc(N3CCNCC3)c(F)cc2c1=O [Ciprofloxacin]	µg/mL	0.06
NC[C@H]1O[C@H](O[C@H]2[C@H](O)[C@@H](O[C@H]3O[C@H](CO)[C@@H](O)[C@H](N)[C@H]3O)[C@H](N)C[C@@H]2N)[C@H](N)C[C@@H]1O [Tobramycin]	µg/mL	0.5
O=C(N[C@H](CO)[C@H](O)c1ccc([N+](=O)[O-])cc1)C(Cl)Cl [Chloramphenicol]	µg/mL	8
CC(C)(O/N=C(\C(=O)N[C@@H]1C(=O)N2C(C(=O)[O-])=C(C[n+]3ccccc3)CS[C@H]12)c1csc(N)n1)C(=O)O [Ceftazidime]	µg/mL	0.5

# context switch: different compound, same MIC
// fetch MIC given entry NC[C@H]1O[C@H](O[C@H]2[C@H](O)[C@@H](O[C@H]3O[C@H](CO)[C@@H](O)[C@H](N)[C@H]3O)[C@H](N)C[C@@H]2N)[C@H](O)[C@@H](O)[C@@H]1O [Kanamycin] 2

====

system: E. coli (ESBL); test: microbe, parasite or virus in culture; format: cell-based; details: Escherichia coli
METRIC_NAME: MIC90

Guide cases for MIC90, answers given:
MOLECULE	EXPERIMENTAL_TARGET	MIC90
CC(C)(O/N=C(\C(=O)N[C@@H]1C(=O)N2C(C(=O)[O-])=C(C[n+]3ccccc3)CS[C@H]12)c1csc(N)n1)C(=O)O	E. coli (ESBL)	> 16 µg/mL
C[C@H]1COc2c(N3CCN(C)CC3)c(F)cc3c(=O)c(C(=O)O)cn1c23	E. coli (ESBL)	> 16 µg/mL
CC1(C)S[C@@H]2[C@H](NC(=O)[C@H](N)c3ccccc3)C(=O)N2[C@H]1C(=O)O	E. coli (ESBL)	> 64 µg/mL

// fetch MIC90 given entry C[C@@H](O)[C@H]1C(=O)N2C(C(=O)O)=C(SCCN=CN)C[C@H]12 0.5 µg/mL

// fetch MIC90 given entry CN(C)c1cc(NC(=O)CNC(C)(C)C)c(O)c2c1C[C@H]1C[C@H]3[C@H](N(C)C)C(O)=C(C(N)=O)C(=O)[C@@]3(O)C(O)=C1C2=O 0.5 µg/mL

// fetch MIC90 given entry CO/N=C(\C(=O)N[C@@H]1C(=O)N2C(C(=O)[O-])=C(C[N+]3(C)CCCC3)CS[C@H]12)c1csc(N)n1 [Cefepime] > 32 µg/mL

// fetch MIC90 given entry NC[C@H]1OB(O)c2c(OCCCO)cccc21 1 µg/mL

====

tested on: P. aeruginosa ATCC 27853 wild type and mutants; experiment: MIC, wild type and GSK2251052 resistant mutants; assay type: cell-based; conditions: Pseudomonas aeruginosa, ATCC27853, P wt.; read-out: MICs
METRIC_NAME: MIC (mg/L)
The answer is to be given in mg/L; state only the numeric part.

Guide cases for MIC, answers given:
STRUCTURE	RESULT_UNITS	NUMERIC_READOUT
O=C(O)c1cn(C2CC2)c2cc(N3CCNCC3)c(F)cc2c1=O	mg/L	0.5
CC(C)(O/N=C(\C(=O)N[C@@H]1C(=O)N2C(C(=O)[O-])=C(C[n+]3ccccc3)CS[C@H]12)c1csc(N)n1)C(=O)O	mg/L	2

# context switch: different compound, same MIC
// fetch MIC given entry NC[C@H]1O[C@H](O[C@H]2[C@H](O)[C@@H](O[C@H]3O[C@H](CO)[C@@H](O)[C@H](N)[C@H]3O)[C@H](N)C[C@@H]2N)[C@H](N)C[C@@H]1O 0.5

====

tested on: Klebsiella spp. (KPC); assay: microbe, parasite or virus in culture; assay type: cell-based; conditions: Klebsiella
METRIC_NAME: MIC90

Guide cases for MIC90, answers given:
MOLECULE	MIC90
CO/N=C(\C(=O)N[C@@H]1C(=O)N2C(C(=O)[O-])=C(C[N+]3(C)CCCC3)CS[C@H]12)c1csc(N)n1 [Cefepime]	> 32 µg/mL
CC1(C)S[C@@H]2[C@H](NC(=O)[C@H](N)c3ccccc3)C(=O)N2[C@H]1C(=O)O	> 64 µg/mL

// fetch MIC90 given entry CC(C)(O/N=C(\C(=O)N[C@@H]1C(=O)N2C(C(=O)[O-])=C(C[n+]3ccccc3)CS[C@H]12)c1csc(N)n1)C(=O)O > 16 µg/mL

// fetch MIC90 given entry NC[C@H]1OB(O)c2c(OCCCO)cccc21 2 µg/mL

====

MIC90 listing for selected compounds.
tested on: Enterobacter aerogenes (WT); assay: microbe, parasite or virus in culture; assay type: cell-based; settings: Klebsiella aerogenes; Enterobacter aerogenes (WT), 199 isolates; read-out: MIC90

Guide cases for MIC90, answers given:
COMPOUND	MIC90
CC(C)(O/N=C(\C(=O)N[C@@H]1C(=O)N2C(C(=O)[O-])=C(C[n+]3ccccc3)CS[C@H]12)c1csc(N)n1)C(=O)O [Ceftazidime]	≤ 1 µg/mL
CC1(C)S[C@@H]2[C@H](NC(=O)[C@H](N)c3ccccc3)C(=O)N2[C@H]1C(=O)O [Ampicillin]	> 64 µg/mL
CN(C)c1cc(NC(=O)CNC(C)(C)C)c(O)c2c1C[C@H]1C[C@H]3[C@H](N(C)C)C(O)=C(C(N)=O)C(=O)[C@@]3(O)C(O)=C1C2=O [Tigecycline]	0.5 µg/mL
NC[C@H]1OB(O)c2c(OCCCO)cccc21 [GSK2251052]	1 µg/mL
CO/N=C(\C(=O)N[C@@H]1C(=O)N2C(C(=O)[O-])=C(C[N+]3(C)CCCC3)CS[C@H]12)c1csc(N)n1 [Cefepime]	≤ 1 µg/mL

# context switch: different compound, same MIC90
// fetch MIC90 given entry C[C@H]1COc2c(N3CCN(C)CC3)c(F)cc3c(=O)c(C(=O)O)cn1c23 [Levofloxacin] ≤ 0.5 µg/mL

====

system: Escherichia coli 1161435 parent and mutant strains B4, B26 and B35; test: Sensitivity to leucine analogs in MH and M9 media; format: cell-based; details: B26 (R334H); M9
METRIC_NAME: MIC (sensitivity to leucine analogs) (µg/mL)
The answer is to be given in µg/mL; state only the numeric part.

Guide cases for MIC (sensitivity to leucine analogs), answers given:
COMPOUND	MIC (sensitivity to leucine analogs) (µg/mL)
CCCC[C@H](N)C(=O)O [Norleucine, L-Norleucine]	8
CC(=O)CC(N)C(=O)O (racemic) [DL-oxonorvaline]	64
CCC[C@H](N)C(=O)O [Norvaline, L-Norvaline]	16
CC(CC(N)C(=O)O)C(F)(F)F (racemic) [5,5,5-Trifluoro-DL-Leucine]	64
CN(C)CC(N)C(=O)O.Cl.Cl (racemic) [4-Aza-DL-Leucine dihydrochloride]	64

# context switch: different compound, same MIC (sensitivity to leucine analogs)
// fetch MIC (sensitivity to leucine analogs) given entry C=CCC(N)C(=O)O (racemic) [DL-2-Allylglycine] 16

====

test system: K. pneumoniae ATCC 13883; assay: Spontaneous frequency of resistance; assay type: cell-based; conditions: 10 X MIC, 24 h
Frequency of Resistance listing for selected compounds.

Guide cases for Frequency of Resistance, answers given:
STRUCTURE	EXPERIMENTAL_TARGET	RESULT
CC(C)(O/N=C(\C(=O)N[C@@H]1C(=O)N2C(C(=O)[O-])=C(C[n+]3ccccc3)CS[C@H]12)c1csc(N)n1)C(=O)O	K. pneumoniae ATCC 13883	<4 × 10^−9
C[C@@H](O)[C@H]1C(=O)N2C(C(=O)O)=C(S[C@@H]3CN[C@H](C(=O)N(C)C)C3)[C@H](C)[C@H]12	K. pneumoniae ATCC 13883	<3 × 10^−9
NC[C@H]1O[C@H](O[C@H]2[C@H](O)[C@@H](O[C@H]3O[C@H](CO)[C@@H](O)[C@H](N)[C@H]3O)[C@H](N)C[C@@H]2N)[C@H](N)C[C@@H]1O	K. pneumoniae ATCC 13883	5 × 10^−8

Retrieve Frequency of Resistance on K. pneumoniae ATCC 13883; query O=C(O)c1cn(C2CC2)c2cc(N3CCNCC3)c(F)cc2c1=O <5 × 10^−9

Retrieve Frequency of Resistance on K. pneumoniae ATCC 13883; query C[C@H]1COc2c(N3CCN(C)CC3)c(F)cc3c(=O)c(C(=O)O)cn1c23 <3 × 10^−9
